biological target: D(2) dopamine receptor (Rattus norvegicus, UniProt P61169); experiment: Compound was evaluated for the inhibition of [3H]spiperone binding to dopamine receptor D2 of rat striatal membranes; format: cell membranes, Membrane
Sequence (P61169 whole entry): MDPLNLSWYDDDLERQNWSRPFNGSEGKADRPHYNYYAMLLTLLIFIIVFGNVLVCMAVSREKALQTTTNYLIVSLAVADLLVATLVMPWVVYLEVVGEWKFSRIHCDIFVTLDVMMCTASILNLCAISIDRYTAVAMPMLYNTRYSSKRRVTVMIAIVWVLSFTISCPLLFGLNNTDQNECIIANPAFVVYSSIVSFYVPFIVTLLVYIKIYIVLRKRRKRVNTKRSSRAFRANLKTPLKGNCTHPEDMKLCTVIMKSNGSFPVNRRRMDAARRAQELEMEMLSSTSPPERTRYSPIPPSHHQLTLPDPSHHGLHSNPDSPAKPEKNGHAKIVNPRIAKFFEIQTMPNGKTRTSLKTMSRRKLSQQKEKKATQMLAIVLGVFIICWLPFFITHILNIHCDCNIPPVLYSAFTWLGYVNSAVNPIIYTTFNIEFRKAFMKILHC
# IC50 per entry
# output: numeric value plus its unit

Known IC50 results, listed for orientation:
{"structure.smiles.string": "CCCN(CCc1ccccc1)CCc1ccc(F)c(O)c1", "system.tested": "D(2) dopamine receptor (Rattus norvegicus, UniProt P61169)", "IC50": "250 nM"}
{"structure.smiles.string": "CCCN(CCC)CCc1ccc(F)c(O)c1", "system.tested": "D(2) dopamine receptor (Rattus norvegicus, UniProt P61169)", "IC50": "950 nM"}
{"structure.smiles.string": "CCCN(CC)CCc1ccc(F)c(O)c1", "system.tested": "D(2) dopamine receptor (Rattus norvegicus, UniProt P61169)", "IC50": "1970 nM"}

Kindly consider the entry below.
Please list IC50 recorded for the compound `CCCN(CCc1ccccc1)CCc1ccc(O)c(F)c1` 580 nM
